Each recorded value in this set is attributed to paper PMC3578785.

# Experiment notes: in vitro
# Type: in vitro ADME, human
# Condition label: human, 0.5 µM, pH 7.4
Listed below: Cli human values for each entry.

| Compound | Reading qualifier | Cli human / mL/min/g |
| --- | --- | --- |
| COc1ccc(-n2c(-c3ccc(C)cc3)cc(CN3CCOCC3)c2C)cc1 [Compound 18] | = | 1.26 |
| COc1ccc(-c2cc(CN3CCOCC3)c(C)n2-c2ccc(F)cc2)cc1 [Compound 6] | = | 0.5 |
| Cc1c(CN2CCOCC2)cc(-c2ccc(C(C)C)cc2)n1-c1ccc(F)cc1 [Compound 9] | < | 0.5 |
| CCc1ccc(-n2c(-c3ccc(Cl)cc3)cc(CN3CCOCC3)c2C)cc1 [Compound 15] | = | 0.9 |
| CCc1ccc(-c2cc(CN3CCOCC3)c(C)n2-c2ccc(OC)cc2)cc1 [Compound 19] | = | 1.71 |
| Cc1ccc(-c2cc(CN3CCOCC3)c(C)n2-c2ccc(Cl)cc2)cc1 [Compound 10] | < | 0.5 |
| CSc1ccc(-c2cc(CN3CCOCC3)c(C)n2-c2ccc(F)cc2)cc1 [Compound 7] | = | 0.56 |
| CCCc1ccc(-c2cc(CN3CCOCC3)c(C)n2-c2ccc(OC)cc2)cc1 [Compound 20] | = | 0.61 |
| CCc1ccc(-c2cc(CN3CCOCC3)c(C)n2-c2ccc(Cl)cc2)cc1 [Compound 11] | = | 0.52 |
